target: Estrogen receptor (Homo sapiens, UniProt P03372); assay: Antagonist activity at human ERalpha expressed in HEK293T cells after 24 hrs by ERE-based dual luciferase reporter gene assay; assay type: cell-based
Quick reference: IC50 of the listed items.
Give your result in nM as a bare value.

Answered examples (3):
| Compound | Assay system | Display unit | IC50 |
| --- | --- | --- | --- |
| O=S(=O)(Oc1ccc(Cl)cc1)C1CC2OC1C(c1ccc(/C=C/c3cc(O)cc(O)c3)cc1)=C2c1ccc(O)cc1 (centres undefined) | Estrogen receptor (Homo sapiens, UniProt P03372) | nM | 62 |
| O=S(=O)(Oc1ccc(/C=C/c2ccccc2)cc1)C1CC2OC1C(c1ccc(O)cc1)=C2c1ccc(O)cc1 (centres undefined) | Estrogen receptor (Homo sapiens, UniProt P03372) | nM | 149 |
| O=S(=O)(Oc1ccc(/C=C/c2cc(O)cc(O)c2)cc1)C1CC2OC1C(c1ccc(O)cc1)=C2c1ccc(O)cc1 (centres undefined) | Estrogen receptor (Homo sapiens, UniProt P03372) | nM | 19 |

Below: the item to evaluate.
**Query** What value of IC50 has been recorded for this entry: COc1cccc(OS(=O)(=O)C2CC3OC2C(c2ccc(/C=C/c4cc(O)cc(O)c4)cc2)=C3c2ccc(O)cc2)c1 (centres undefined)
**Result** 48

---

biological target: Estrogen receptor beta (Homo sapiens, UniProt Q92731); test: Binding affinity to human ERbeta LBD after 2 hrs in absence of light by competitive fluorometric binding assay
Sequence (Q92731 whole entry, the tested form may be a part): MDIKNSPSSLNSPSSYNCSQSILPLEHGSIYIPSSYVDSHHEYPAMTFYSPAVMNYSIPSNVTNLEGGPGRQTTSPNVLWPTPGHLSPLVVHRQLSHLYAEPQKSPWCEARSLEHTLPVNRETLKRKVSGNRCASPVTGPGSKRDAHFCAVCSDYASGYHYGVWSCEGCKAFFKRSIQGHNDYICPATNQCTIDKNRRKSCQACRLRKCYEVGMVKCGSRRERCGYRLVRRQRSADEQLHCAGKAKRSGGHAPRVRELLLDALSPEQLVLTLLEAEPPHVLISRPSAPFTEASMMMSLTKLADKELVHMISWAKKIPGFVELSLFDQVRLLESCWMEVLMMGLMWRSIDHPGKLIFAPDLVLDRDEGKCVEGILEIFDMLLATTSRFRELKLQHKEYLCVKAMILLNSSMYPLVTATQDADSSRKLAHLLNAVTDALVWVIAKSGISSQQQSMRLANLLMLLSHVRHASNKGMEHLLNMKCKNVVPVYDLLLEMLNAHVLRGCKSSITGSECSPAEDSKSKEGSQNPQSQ
Listing: Ki of selected molecules
Dear colleague, please return just the value in µM, with no unit written.

| Molecule | Ki [µM] |
| --- | --- |
| COc1cc(/C=C/c2ccc(OS(=O)(=O)C3CC4OC3C(c3ccc(O)cc3)=C4c3ccc(O)cc3)cc2)cc(OC)c1 (stereo not given) | 0.0734 |
| O=S(=O)(Oc1cccc(Br)c1)C1CC2OC1C(c1ccc(/C=C/c3cc(O)cc(O)c3)cc1)=C2c1ccc(O)cc1 (stereo not given) | 0.05 |

Below: the item to evaluate.
**Query** Which Ki is reported for this molecule? O=S(=O)(Oc1cccc(/C=C/c2cc(O)cc(O)c2)c1)C1CC2OC1C(c1ccc(O)cc1)=C2c1ccc(O)cc1 (stereo not given)
**Result** 4.58

---

target: Estrogen receptor beta (Homo sapiens, UniProt Q92731); assay: Antagonist activity at human ERbeta expressed in HEK293T cells after 24 hrs by ERE-based dual luciferase reporter gene assay relative to E2; format: cell-based; parameters: concentration or dose not given beside the values
Reported property: Efficacy (%)
Please reply with the bare figure in % and do not write the unit itself.

| Compound | Efficacy, % |
| --- | --- |
| O=S(=O)(Oc1cccc2ccccc12)C1CC2OC1C(c1ccc(/C=C/c3cc(O)cc(O)c3)cc1)=C2c1ccc(O)cc1 (stereo not given) | 71 |
| COc1cc(/C=C/c2ccc(C3=C(c4ccc(O)cc4)C4CC(S(=O)(=O)Oc5ccccc5)C3O4)cc2)cc(OC)c1 (stereo not given) | 85 |
| O=S(=O)(Oc1ccccc1)C1CC2OC1C(c1ccc(/C=C/c3cc(O)cc(O)c3)cc1)=C2c1ccc(O)cc1 (stereo not given) | 76 |
| O=S(=O)(Oc1ccc(F)cc1)C1CC2OC1C(c1ccc(/C=C/c3cc(O)cc(O)c3)cc1)=C2c1ccc(O)cc1 (stereo not given) | 98 |
| O=S(=O)(Oc1cccc(Cl)c1)C1CC2OC1C(c1ccc(/C=C/c3cc(O)cc(O)c3)cc1)=C2c1ccc(O)cc1 (stereo not given) | 91 |

**Query** Quick one: Efficacy of Cc1cccc(OS(=O)(=O)C2CC3OC2C(c2ccc(/C=C/c4cc(O)cc(O)c4)cc2)=C3c2ccc(O)cc2)c1 (stereo not given) ?
**Result** 46

**Query** Recorded Efficacy of O=S(=O)(Oc1ccc(-c2ccccc2)cc1)C1CC2OC1C(c1ccc(/C=C/c3cc(O)cc(O)c3)cc1)=C2c1ccc(O)cc1 (stereo not given) , please.
**Result** 97

**Query** Recorded Efficacy for O=S(=O)(Oc1cccc(/C=C/c2cc(O)cc(O)c2)c1)C1CC2OC1C(c1ccc(O)cc1)=C2c1ccc(O)cc1 (stereo not given) , please?
**Result** 93

**Query** Fill blank: measured Efficacy of the compound Cc1ccc(OS(=O)(=O)C2CC3OC2C(c2ccc(/C=C/c4cc(O)cc(O)c4)cc2)=C3c2ccc(O)cc2)cc1 (stereo not given) is ____.
**Result** 42

**Query** # lookup: Efficacy of CCc1ccccc1OS(=O)(=O)C1CC2OC1C(c1ccc(/C=C/c3cc(OC)cc(OC)c3)cc1)=C2c1ccc(O)cc1 (stereo not given)
**Result** 72

**Query** Name the recorded Efficacy for COc1cc(/C=C/c2cccc(OS(=O)(=O)C3CC4OC3C(c3ccc(O)cc3)=C4c3ccc(O)cc3)c2)cc(OC)c1 (stereo not given) .
**Result** 86

**Query** What does the record list as Efficacy for COc1cc(/C=C/c2ccc(C3=C(c4ccc(O)cc4)C4CC(S(=O)(=O)Oc5ccc(Br)cc5)C3O4)cc2)cc(OC)c1 (stereo not given) ?
**Result** 94

**Query** Reported Efficacy, compound O=S(=O)(Oc1ccccc1Cl)C1CC2OC1C(c1ccc(/C=C/c3cc(O)cc(O)c3)cc1)=C2c1ccc(O)cc1 (stereo not given) : ____
**Result** 45

---

biological target: Estrogen receptor beta (Homo sapiens); experiment: Agonist activity at human ERbeta expressed in HEK293T cells after 24 hrs by ERE-based dual luciferase reporter gene assay
In this section we review reported EC50 values for a set of compounds.
Quick reminder: number only, in nM, skip the unit.

| Compound | EC50, nM |
| --- | --- |
| COc1cc(/C=C/c2ccc(C3=C(c4ccc(O)cc4)C4CC(S(=O)(=O)Oc5cccc(OC)c5)C3O4)cc2)cc(OC)c1 (stereo not given) | 941 |

**Query** I would be grateful if you could share the reported EC50 for O=S(=O)(Oc1ccc(O)cc1)C1CC2OC1C(c1ccc(/C=C/c3cc(O)cc(O)c3)cc1)=C2c1ccc(O)cc1 (stereo not given) .
**Result** 355

**Query** Please look up its EC50: O=S(=O)(Oc1ccccc1)C1CC2OC1C(c1ccc(/C=C/c3ccccc3)cc1)=C2c1ccc(O)cc1 (stereo not given)
**Result** 2780

**Query** What value of EC50 has been reported for the following compound? CCc1ccccc1OS(=O)(=O)C1CC2OC1C(c1ccc(/C=C/c3cc(OC)cc(OC)c3)cc1)=C2c1ccc(O)cc1 (stereo not given)
**Result** 9

**Query** EC50 for O=S(=O)(Oc1ccc(/C=C/c2cc(O)cc(O)c2)cc1)C1CC2OC1C(c1ccc(O)cc1)=C2c1ccc(O)cc1 (stereo not given) ?
**Result** 194

**Query** Fill in the blank: the reported EC50 of O=S(=O)(Oc1cccc(/C=C/c2cc(O)cc(O)c2)c1)C1CC2OC1C(c1ccc(O)cc1)=C2c1ccc(O)cc1 (stereo not given) is ____.
**Result** 749

---

target: UniProt:Q92731; test: Agonist activity at human ERbeta expressed in HEK293T cells after 24 hrs by ERE-based dual luciferase reporter gene assay
This listing pairs molecules with measured EC50.
Reply numerically in µM, unit not repeated.

Some molecules with known EC50 results, for comparison:
| Molecule | Assay system | Display unit | Numeric result |
| --- | --- | --- | --- |
| O=S(=O)(Oc1ccccc1Cl)C1CC2OC1C(c1ccc(/C=C/c3cc(O)cc(O)c3)cc1)=C2c1ccc(O)cc1 (stereo not given) | UniProt:Q92731 | µM | 0.063 |
| Cc1ccc(OS(=O)(=O)C2CC3OC2C(c2ccc(/C=C/c4cc(O)cc(O)c4)cc2)=C3c2ccc(O)cc2)cc1 (stereo not given) | UniProt:Q92731 | µM | 0.78 |
| O=S(=O)(Oc1ccc(-c2ccccc2)cc1)C1CC2OC1C(c1ccc(/C=C/c3cc(O)cc(O)c3)cc1)=C2c1ccc(O)cc1 (stereo not given) | UniProt:Q92731 | µM | 0.043 |
| O=S(=O)(Oc1ccc(/C=C/c2ccccc2)cc1)C1CC2OC1C(c1ccc(O)cc1)=C2c1ccc(O)cc1 (stereo not given) | UniProt:Q92731 | µM | 0.031 |

// moving on: another record for EC50
**Query** Find EC50 (UniProt:Q92731) for the entry O=S(=O)(Oc1ccccc1C(F)(F)F)C1CC2OC1C(c1ccc(/C=C/c3cc(O)cc(O)c3)cc1)=C2c1ccc(O)cc1 (stereo not given)
**Result** 2.9

---

Below: a set of entries, each annotated with reported Efficacy.
biological target: Estrogen receptor (Homo sapiens) (UniProt P03372); assay: Agonist activity at human ERalpha expressed in HEK293T cells after 24 hrs by ERE-based dual luciferase reporter gene assay relative to E2; format: cell-based
Sequence (P03372 whole entry): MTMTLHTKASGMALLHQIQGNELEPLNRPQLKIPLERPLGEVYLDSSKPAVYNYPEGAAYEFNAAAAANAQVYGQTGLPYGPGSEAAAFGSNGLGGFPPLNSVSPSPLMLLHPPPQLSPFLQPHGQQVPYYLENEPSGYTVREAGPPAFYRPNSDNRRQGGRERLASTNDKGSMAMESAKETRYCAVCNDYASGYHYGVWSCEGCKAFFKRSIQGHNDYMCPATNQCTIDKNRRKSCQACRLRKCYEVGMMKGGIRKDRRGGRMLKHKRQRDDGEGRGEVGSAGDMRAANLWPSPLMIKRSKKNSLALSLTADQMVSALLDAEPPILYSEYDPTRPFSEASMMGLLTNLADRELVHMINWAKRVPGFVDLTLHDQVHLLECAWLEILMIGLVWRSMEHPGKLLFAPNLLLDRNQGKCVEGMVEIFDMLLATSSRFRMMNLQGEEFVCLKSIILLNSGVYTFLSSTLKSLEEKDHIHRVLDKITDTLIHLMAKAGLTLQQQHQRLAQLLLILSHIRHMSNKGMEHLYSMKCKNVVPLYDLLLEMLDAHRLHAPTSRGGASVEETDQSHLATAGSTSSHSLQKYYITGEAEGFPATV
The response must be a number in % with no trailing unit.

| Compound | Assay system | Reported property | Numeric result |
| --- | --- | --- | --- |
| O=S(=O)(Oc1ccc(Cl)cc1)C1CC2OC1C(c1ccc(/C=C/c3cc(O)cc(O)c3)cc1)=C2c1ccc(O)cc1 (configuration not stated) | Estrogen receptor (Homo sapiens) (UniProt P03372) | Efficacy | -5 |
| O=S(=O)(Oc1cccc(C(F)(F)F)c1)C1CC2OC1C(c1ccc(/C=C/c3cc(O)cc(O)c3)cc1)=C2c1ccc(O)cc1 (configuration not stated) | Estrogen receptor (Homo sapiens) (UniProt P03372) | Efficacy | -7 |
| COc1cc(/C=C/c2ccc(C3=C(c4ccc(O)cc4)C4CC(S(=O)(=O)Oc5ccccc5)C3O4)cc2)cc(OC)c1 (configuration not stated) | Estrogen receptor (Homo sapiens) (UniProt P03372) | Efficacy | 10 |
| O=S(=O)(Oc1cccc(Br)c1)C1CC2OC1C(c1ccc(/C=C/c3cc(O)cc(O)c3)cc1)=C2c1ccc(O)cc1 (configuration not stated) | Estrogen receptor (Homo sapiens) (UniProt P03372) | Efficacy | 3 |
| COc1cccc(OS(=O)(=O)C2CC3OC2C(c2ccc(/C=C/c4cc(O)cc(O)c4)cc2)=C3c2ccc(O)cc2)c1 (configuration not stated) | Estrogen receptor (Homo sapiens) (UniProt P03372) | Efficacy | 55 |
| COc1cc(/C=C/c2ccc(C3=C(c4ccc(O)cc4)C4CC(S(=O)(=O)Oc5ccc(Br)cc5)C3O4)cc2)cc(OC)c1 (configuration not stated) | Estrogen receptor (Homo sapiens) (UniProt P03372) | Efficacy | 18 |

**Query** So what Efficacy did O=S(=O)(Oc1ccc(/C=C/c2ccccc2)cc1)C1CC2OC1C(c1ccc(O)cc1)=C2c1ccc(O)cc1 (configuration not stated) get with Estrogen receptor (Homo sapiens) (UniProt P03372)?
**Result** 6

**Query** Item: COc1cc(/C=C/c2ccc(C3=C(c4ccc(O)cc4)C4CC(S(=O)(=O)Oc5cccc(OC)c5)C3O4)cc2)cc(OC)c1 (configuration not stated) Test system: Estrogen receptor (Homo sapiens) (UniProt P03372) Read-out: Efficacy Value: ?
**Result** -2

**Query** Reported Efficacy for Estrogen receptor (Homo sapiens) (UniProt P03372), given O=S(=O)(Oc1cccc2ccccc12)C1CC2OC1C(c1ccc(/C=C/c3cc(O)cc(O)c3)cc1)=C2c1ccc(O)cc1 (configuration not stated) ?
**Result** -10

**Query** Query the reported Efficacy for Estrogen receptor (Homo sapiens) (UniProt P03372); item: O=S(=O)(Oc1ccc(/C=C/c2cc(O)cc(O)c2)cc1)C1CC2OC1C(c1ccc(O)cc1)=C2c1ccc(O)cc1 (configuration not stated)
**Result** -9

**Query** Fill in the recorded Efficacy for this compound, with Estrogen receptor (Homo sapiens) (UniProt P03372) as test system: O=S(=O)(Oc1ccccc1)C1CC2OC1C(c1ccc(/C=C/c3ccccc3)cc1)=C2c1ccc(O)cc1 (configuration not stated)
**Result** 13
